molecular target: human GluN1/GluN2B NMDA receptors (Homo sapiens); test: Calcium flux (FLIPR) assay on cloned human NR1/GluN2B ion channels expressed in mammalian cells (standard and HTS variants); conditions: cells expressing human GluN1/GluN2B, glutamate and glycine co-agonists
Sequence (Q13224 27-1484, other chains not shown): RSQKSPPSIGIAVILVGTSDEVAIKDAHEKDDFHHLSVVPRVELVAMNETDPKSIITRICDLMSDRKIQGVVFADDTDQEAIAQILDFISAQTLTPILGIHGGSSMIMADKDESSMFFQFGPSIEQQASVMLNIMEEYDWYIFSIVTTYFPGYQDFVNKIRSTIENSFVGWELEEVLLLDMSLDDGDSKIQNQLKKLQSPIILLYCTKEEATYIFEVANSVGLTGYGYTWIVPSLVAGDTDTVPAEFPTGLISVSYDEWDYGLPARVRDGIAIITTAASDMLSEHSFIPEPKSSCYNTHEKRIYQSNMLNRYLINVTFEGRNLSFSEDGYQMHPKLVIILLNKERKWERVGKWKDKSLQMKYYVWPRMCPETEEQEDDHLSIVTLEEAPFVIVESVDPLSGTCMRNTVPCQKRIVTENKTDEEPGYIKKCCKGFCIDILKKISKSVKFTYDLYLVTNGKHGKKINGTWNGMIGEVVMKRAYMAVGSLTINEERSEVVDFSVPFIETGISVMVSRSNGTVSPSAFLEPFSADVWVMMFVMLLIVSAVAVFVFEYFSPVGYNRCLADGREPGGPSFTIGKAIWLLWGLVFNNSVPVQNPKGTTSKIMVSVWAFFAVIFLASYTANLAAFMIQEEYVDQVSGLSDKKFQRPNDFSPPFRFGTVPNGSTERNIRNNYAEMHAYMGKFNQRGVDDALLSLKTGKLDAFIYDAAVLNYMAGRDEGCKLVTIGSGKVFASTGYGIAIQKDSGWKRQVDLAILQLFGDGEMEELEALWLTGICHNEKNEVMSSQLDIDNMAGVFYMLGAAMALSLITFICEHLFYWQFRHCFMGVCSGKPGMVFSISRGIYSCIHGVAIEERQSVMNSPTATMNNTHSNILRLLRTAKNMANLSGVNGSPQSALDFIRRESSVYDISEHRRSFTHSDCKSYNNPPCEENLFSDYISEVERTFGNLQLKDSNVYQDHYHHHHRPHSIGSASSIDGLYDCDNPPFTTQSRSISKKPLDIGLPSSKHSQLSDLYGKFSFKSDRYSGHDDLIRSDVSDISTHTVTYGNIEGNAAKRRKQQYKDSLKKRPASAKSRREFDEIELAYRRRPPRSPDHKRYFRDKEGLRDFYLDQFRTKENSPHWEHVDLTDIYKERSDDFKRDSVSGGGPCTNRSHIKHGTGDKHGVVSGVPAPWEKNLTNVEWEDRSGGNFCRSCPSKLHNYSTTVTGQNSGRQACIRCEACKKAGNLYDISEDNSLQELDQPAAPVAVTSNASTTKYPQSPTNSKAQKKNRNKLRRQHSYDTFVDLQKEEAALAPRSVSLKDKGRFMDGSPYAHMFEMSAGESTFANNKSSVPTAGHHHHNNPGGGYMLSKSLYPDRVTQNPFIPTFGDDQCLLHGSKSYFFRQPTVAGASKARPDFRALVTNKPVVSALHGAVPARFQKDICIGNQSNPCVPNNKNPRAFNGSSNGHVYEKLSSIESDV
Where a name gives a salt, the structure may show the parent alone.
Reported Property: pIC50
Scale for pIC50: -log10 of concentration given in mol/L; no unit attached.

Problem: State the recorded pIC50 for this entry: Cc1nnc(Cn2ncc3ncc(-c4ccnc(C(F)(F)F)c4)cc32)o1
Solution: 6.33

Problem: Next record, please: Cc1nn(Cc2cccnc2)c2cc(-c3ccc(F)c(C(F)F)c3)cnc12
Solution: 7.47

Problem: Next record, please: Cc1nnc(Cn2ncc3ncc(-c4cccc(C(C)(F)F)c4)cc32)o1
Solution: 6.80

Problem: Next record, please: Cc1noc(Cn2ncc3ncc(-c4ccc(F)c(C(F)F)c4)cc32)n1
Solution: 7.40

Problem: Next record, please: N#Cc1cccc(Cn2ncc3ncc(-c4cccc(C(F)(F)F)c4)cc32)c1
Solution: 6.40

Problem: Next record, please: Cc1nnc(Cn2nc(F)c3ncc(-c4ccc(F)c(C(F)F)c4)cc32)o1
Solution: 7.42

Problem: Next record, please: Fc1ccc(-c2cnc3cnn(Cc4cncc(OC(F)F)c4)c3c2)cc1C(F)F
Solution: 6.96

Problem: Next record, please: CC(F)(F)c1cccc(-c2cnc3cnn(Cc4cncnc4)c3c2)c1
Solution: 7.29

Problem: Next record, please: Oc1nnc(Cn2ncc3ncc(-c4ccc(F)c(C(F)F)c4)cc32)s1
Solution: 7.19

Problem: Next record, please: Fc1ccc(-c2cnc3cnn(Cc4cccnn4)c3c2)cc1C(F)F
Solution: 7.64

Problem: Next record, please: Cc1nnc(Cn2ncc3ncc(-c4ccc(Cl)c(OC(F)F)c4)cc32)o1
Solution: 6.55

Problem: Next record, please: Cc1nnc(Cn2ncc3ncc(-c4ccc(Cl)s4)cc32)o1
Solution: 7.05

Problem: Next record, please: Cc1nnc(Cn2ncc3ncc(-c4ccc(F)c(C)c4)cc32)o1
Solution: 7.43

Problem: Next record, please: Cc1nnc(Cn2nc(C)c3ncc(-c4ccc(F)c(C(F)F)c4)cc32)s1
Solution: 7.18

Problem: Next record, please: Cc1ncccc1Cn1ncc2ncc(-c3ccc(F)c(F)c3)cc21
Solution: 5.44

Problem: Next record, please: Fc1cncc(Cn2ncc3ncc(-c4ccc(F)c(C(F)(F)F)c4)cc32)c1
Solution: 7.12

Problem: Next record, please: COc1cncc(Cn2ncc3ncc(-c4ccc(F)c(C(F)(F)F)c4)cc32)c1
Solution: 7.04

Problem: Next record, please: Cc1nnc(Cn2ncc3ncc(-c4ccc(F)c(C)c4F)cc32)o1
Solution: 7.46

Problem: Next record, please: Cc1cc(Cn2ncc3ncc(-c4cccc(C(F)(F)F)c4)cc32)[nH]n1
Solution: 5.32

Problem: Next record, please: COc1nccc(Cn2ncc3ncc(-c4ccc(F)c(OC(F)F)c4)cc32)n1
Solution: 6.03

Problem: Next record, please: Cc1cc(Cn2ncc3ncc(-c4ccc(Cl)c(OC(F)F)c4)cc32)no1
Solution: 6.80

Problem: Next record, please: FC(F)(F)c1cncc(Cn2ncc3ncc(-c4cccc(C(F)(F)F)c4)cc32)c1
Solution: 5.64

Problem: Next record, please: Cc1cncc(Cn2ncc3ncc(-c4ccc(F)c(F)c4)cc32)c1
Solution: 7.15

Problem: Next record, please: Cc1ncc(Cn2ncc3ncc(-c4ccc(F)c(C)c4F)cc32)o1
Solution: 6.57

Problem: Next record, please: Fc1ccc(-c2cnc3cnn(Cc4cncnc4)c3c2)cc1OC(F)F
Solution: 7.28

Problem: Next record, please: Cc1cnc(Cn2ncc3ncc(-c4ccc(F)c(C)c4F)cc32)s1
Solution: 6.46

Problem: Next record, please: Cn1cnnc1Cn1ncc2ncc(-c3ccc(F)c(C(F)F)c3)cc21
Solution: 6.95

Problem: Next record, please: Cc1ccncc1Cn1ncc2ncc(-c3ccc(F)c(C)c3F)cc21 [Example 247, trifluoroacetate salt]
Solution: 6.89

Problem: Next record, please: Cc1cnc(Cn2ncc3ncc(-c4ccc(F)c(C(F)F)c4)cc32)o1
Solution: 7.55

Problem: Next record, please: Cc1cccc(-c2cnc3cnn(Cc4cccnn4)c3c2)c1
Solution: 6.48

Problem: Next record, please: Fc1cncc(Cn2ncc3ncc(-c4ccc(F)c(F)c4)cc32)c1 [Example 192, trifluoroacetate salt]
Solution: 7.32

Problem: Next record, please: Fc1ccc(-c2cnc3cnn(Cc4ccccn4)c3c2)cc1F [Example 186, trifluoroacetate salt]
Solution: 5.60

Problem: Next record, please: COc1ncccc1Cn1ncc2ncc(-c3ccc(F)c(OC(F)F)c3)cc21
Solution: 6.15

Problem: Next record, please: COc1cccc(-c2cnc3cnn(Cc4ccc(F)nc4)c3c2)c1
Solution: 5.78
